Reported values of binding signal for individual entries
# SYSTEM UNDER TEST: GST-Dm-Relish (Drosophila melanogaster, UniProt Q94527 99-473)
# Sequence: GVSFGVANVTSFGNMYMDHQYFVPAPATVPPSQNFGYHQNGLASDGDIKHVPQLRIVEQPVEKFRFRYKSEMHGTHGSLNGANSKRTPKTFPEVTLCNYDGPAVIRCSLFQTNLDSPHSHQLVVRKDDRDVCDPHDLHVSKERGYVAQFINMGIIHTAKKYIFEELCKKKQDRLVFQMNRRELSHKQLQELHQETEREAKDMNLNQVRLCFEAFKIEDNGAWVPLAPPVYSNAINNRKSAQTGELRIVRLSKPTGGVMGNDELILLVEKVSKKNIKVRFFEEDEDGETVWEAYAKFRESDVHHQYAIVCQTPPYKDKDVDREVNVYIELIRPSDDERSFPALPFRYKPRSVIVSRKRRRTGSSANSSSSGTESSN
# TEST METHOD NOTES: protein-binding microarray (PBM); PBM: ~300 nM protein, 6 mM HEPES pH 7.8, 80 mM KCl, 0.5 mM EDTA, 0.5 mM EGTA, 6% glycerol, 35 ng/ul poly-dIdC, 1% milk, 1 h, room temperature; high values mean tight binding
# APPLIED CONDITIONS: dsDNA, one strand shown
Number only, in z-score; omit the unit.

Known binding signal results, listed for orientation:
- SEQ: "CCGATTAACATCAGGGGGTATAATGATGTTAATCGGGTCTTGATTCGCTTGACGCTGCTG"
  SYSTEM UNDER TEST: "GST-Dm-Relish (Drosophila melanogaster, UniProt Q94527 99-473)"
  binding signal (z-score): 3.02
- SEQ: "CCGATTAACATCAACCTTTCCCCTGATGTTAATCGGGTCTTGATTCGCTTGACGCTGCTG"
  SYSTEM UNDER TEST: "GST-Dm-Relish (Drosophila melanogaster, UniProt Q94527 99-473)"
  binding signal (z-score): 1.62
- SEQ: "CCGATTAACATCAGGGGATTGCATGATGTTAATCGGGTCTTGATTCGCTTGACGCTGCTG"
  SYSTEM UNDER TEST: "GST-Dm-Relish (Drosophila melanogaster, UniProt Q94527 99-473)"
  binding signal (z-score): 4.62

So the reported binding signal for CCGATTAACATCACCCCAACCCCTGATGTTAATCGGGTCTTGATTCGCTTGACGCTGCTG , on GST-Dm-Relish (Drosophila melanogaster, UniProt Q94527 99-473), turned out to be 2.69

So the reported binding signal for CCGATTAACATCAAAATTCCCACTGATGTTAATCGGGTCTTGATTCGCTTGACGCTGCTG , on GST-Dm-Relish (Drosophila melanogaster, UniProt Q94527 99-473), turned out to be 5.55

So the reported binding signal for CCGATTAACATCACGGGATTTGGTGATGTTAATCGGGTCTTGATTCGCTTGACGCTGCTG , on GST-Dm-Relish (Drosophila melanogaster, UniProt Q94527 99-473), turned out to be 1.79

====

# SYSTEM UNDER TEST: GST-Co-NF-kB (Capsaspora owczarzaki, UniProt F1ARL5 200-546)
# Sequence: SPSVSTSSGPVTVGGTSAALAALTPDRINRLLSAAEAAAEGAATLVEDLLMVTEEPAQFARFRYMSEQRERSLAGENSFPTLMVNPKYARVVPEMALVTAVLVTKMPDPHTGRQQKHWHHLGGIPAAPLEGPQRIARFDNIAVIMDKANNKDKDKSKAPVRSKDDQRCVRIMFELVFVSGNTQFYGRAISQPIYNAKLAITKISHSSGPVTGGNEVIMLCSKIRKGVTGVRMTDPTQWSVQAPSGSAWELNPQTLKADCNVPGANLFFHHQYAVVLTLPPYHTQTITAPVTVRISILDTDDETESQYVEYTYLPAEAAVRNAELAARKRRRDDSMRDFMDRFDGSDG
# TEST METHOD NOTES: protein-binding microarray (PBM); PBM: ~300 nM protein, 6 mM HEPES pH 7.8, 80 mM KCl, 0.5 mM EDTA, 0.5 mM EGTA, 6% glycerol, 35 ng/ul poly-dIdC, 1% milk, 1 h, room temperature; high values mean tight binding
# APPLIED CONDITIONS: dsDNA, one strand shown
MEASURED ATTRIBUTE: binding signal (z-score)
Number only, in z-score; omit the unit.

Known binding signal results, listed for orientation:
- SEQ: "CCGATTAACATCAAGACTTTCCCTGATGTTAATCGGGTCTTGATTCGCTTGACGCTGCTG"
  MEASURED ATTRIBUTE: "binding signal"
  MEASUREMENT: 2.92
- SEQ: "CCGATTAACATCACAGTTTCCCCTGATGTTAATCGGGTCTTGATTCGCTTGACGCTGCTG"
  MEASURED ATTRIBUTE: "binding signal"
  MEASUREMENT: 7.74
- SEQ: "CCGATTAACATCAACCCCCCCCATGATGTTAATCGGGTCTTGATTCGCTTGACGCTGCTG"
  MEASURED ATTRIBUTE: "binding signal"
  MEASUREMENT: 4.94
- SEQ: "CCGATTAACATCAAGGGGGGTATTGATGTTAATCGGGTCTTGATTCGCTTGACGCTGCTG"
  MEASURED ATTRIBUTE: "binding signal"
  MEASUREMENT: 4.22

Okay, next one:
Measured binding signal, CCGATTAACATCACCCCAAACGCTGATGTTAATCGGGTCTTGATTCGCTTGACGCTGCTG : 1.79

====

# SYSTEM UNDER TEST: GST-Nv-NF-kB (Cys allele) (Nematostella vectensis, UniProt E5G601 2-411)
# Sequence: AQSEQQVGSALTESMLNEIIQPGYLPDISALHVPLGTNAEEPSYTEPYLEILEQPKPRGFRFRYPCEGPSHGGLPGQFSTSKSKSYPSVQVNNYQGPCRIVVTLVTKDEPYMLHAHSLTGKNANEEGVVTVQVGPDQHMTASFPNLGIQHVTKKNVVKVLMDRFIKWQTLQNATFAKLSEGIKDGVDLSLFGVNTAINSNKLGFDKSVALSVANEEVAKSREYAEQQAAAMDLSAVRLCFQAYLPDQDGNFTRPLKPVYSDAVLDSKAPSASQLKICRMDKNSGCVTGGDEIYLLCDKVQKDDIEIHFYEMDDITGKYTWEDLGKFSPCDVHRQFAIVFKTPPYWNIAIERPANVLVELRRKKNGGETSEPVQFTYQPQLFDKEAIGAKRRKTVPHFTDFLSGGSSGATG
# TEST METHOD NOTES: protein-binding microarray (PBM); PBM: ~300 nM protein, 6 mM HEPES pH 7.8, 80 mM KCl, 0.5 mM EDTA, 0.5 mM EGTA, 6% glycerol, 35 ng/ul poly-dIdC, 1% milk, 1 h, room temperature; Ap Aiptasia and Nv Nematostella (sea anemones) / Co Capsaspora / Aq Amphimedon (sponge) / Dm Drosophila / Hu human; RHD is the Rel homology domain; high values mean tight binding
# APPLIED CONDITIONS: dsDNA, one strand shown
MEASURED ATTRIBUTE: binding signal (z-score)
Number only, in z-score; omit the unit.

Known binding signal results, listed for orientation:
- SEQ: "CCGATTAACATCAAATTTTCCCATGATGTTAATCGGGTCTTGATTCGCTTGACGCTGCTG"
  UNIT SPEC: "z-score"
  MEASUREMENT: 5.18
- SEQ: "CCGATTAACATCAAAAATCCACCTGATGTTAATCGGGTCTTGATTCGCTTGACGCTGCTG"
  UNIT SPEC: "z-score"
  MEASUREMENT: 2.65
- SEQ: "CCGATTAACATCAAACCCCCCCCTGATGTTAATCGGGTCTTGATTCGCTTGACGCTGCTG"
  UNIT SPEC: "z-score"
  MEASUREMENT: 5.16
- SEQ: "CCGATTAACATCAAAGGAATCCCTGATGTTAATCGGGTCTTGATTCGCTTGACGCTGCTG"
  UNIT SPEC: "z-score"
  MEASUREMENT: 2.14
- SEQ: "CCGATTAACATCACAACGACCCCTGATGTTAATCGGGTCTTGATTCGCTTGACGCTGCTG"
  UNIT SPEC: "z-score"
  MEASUREMENT: 1.3
- SEQ: "CCGATTAACATCAGGGGGGTGTATGATGTTAATCGGGTCTTGATTCGCTTGACGCTGCTG"
  UNIT SPEC: "z-score"
  MEASUREMENT: 3.97
- SEQ: "CCGATTAACATCACTGTTTCCCCTGATGTTAATCGGGTCTTGATTCGCTTGACGCTGCTG"
  UNIT SPEC: "z-score"
  MEASUREMENT: 7.06
- SEQ: "CCGATTAACATCAGGGGAAATGATGATGTTAATCGGGTCTTGATTCGCTTGACGCTGCTG"
  UNIT SPEC: "z-score"
  MEASUREMENT: 6.87

Okay, next one:
Measured binding signal, CCGATTAACATCACGAAAATCCCTGATGTTAATCGGGTCTTGATTCGCTTGACGCTGCTG : 4.39

Origin of the recorded values: paper PMC5700166
